System: hiPSC-derived neurons co-cultured with human primary astrocytes in 3D
Test: Ca2+ transient oscillation assay (FDSS), 3D spheroids
Type: cell-based
Conditions: 3 µM; 60 min
Marks after values point to notes of the source that are not given here.
Catalogue of Peak Number—3D Mean readings, one per entry.
EXPERIMENTAL READOUT: Peak Number—3D Mean

- NCCCC(=O)O [GABA, gamma-aminobutyric acid]: 2.2 % change from baseline
- C[C@]12N[C@H](Cc3ccccc31)c1ccccc12 [MK-801, Dizocilpine]: −84.8 ** % change from baseline
- CC1(C)S[C@@H]2[C@H](NC(=O)[C@H](N)c3ccc(O)cc3)C(=O)N2[C@H]1C(=O)O [Amoxicillin]: 18.3 % change from baseline
- Clc1ccc2c(c1)C(N1CCNCC1)=Nc1ccccc1O2 [Amoxapine]: −7.5 % change from baseline
- CN(C)CCCN1c2ccccc2Sc2ccc(Cl)cc21 [Chlorpromazine]: −4.8 % change from baseline
